TARGET DESC: Bromodomain-containing protein 4 (Homo sapiens) (UniProt O60885)
ASSAY CONDITIONS: Compound concentration 20.0 uM, Protein concentration 2.0 uM, Result type QC Liability
MEASUREMENT KIND: ΔTm (°C)
Write the answer as a number in °C, unit excluded.

Some molecules with recorded ΔTm:
QUERY SMILES	TARGET DESC	MEASUREMENT KIND	OBS VALUE
CN(C)c1ncc2cc(-c3ccc(-c4ncccc4F)cc3Cl)c(=O)n(C[C@H]3OC[C@H](N)CO3)c2n1	Bromodomain-containing protein 4 (Homo sapiens) (UniProt O60885)	ΔTm	-2
CN[C@@H](C)C(=O)N[C@H](C(=O)N1CCC[C@H]1c1nc(C(=O)c2ccc(F)cc2)cs1)C1CCCCC1	Bromodomain-containing protein 4 (Homo sapiens) (UniProt O60885)	ΔTm	-3.21
CCc1ncnc(N2CCN(C(C)=O)CC2)c1C#Cc1ccc(N)nc1	Bromodomain-containing protein 4 (Homo sapiens) (UniProt O60885)	ΔTm	-1.64
CCOc1ccc(S(=O)(=O)Nc2ccc(Cl)cc2C#Cc2cnc(C(=O)O)cc2OC)c2ncccc12	Bromodomain-containing protein 4 (Homo sapiens) (UniProt O60885)	ΔTm	-1.6
CN(C)CCC[C@@]1(c2ccc(F)cc2)OCc2cc(C#N)ccc21	Bromodomain-containing protein 4 (Homo sapiens) (UniProt O60885)	ΔTm	-1.59
c1ccc2c(c1)SCc1c-2[nH]c2ccccc12	Bromodomain-containing protein 4 (Homo sapiens) (UniProt O60885)	ΔTm	-15.3

Task item: Form: Entry = "O=C(Nc1cc2cc[nH]c(=O)c2cc1Cl)[C@H]1CNC[C@@H]1c1cccnc1" | System = Bromodomain-containing protein 4 (Homo sapiens) (UniProt O60885) | ΔTm = ____
Reply: -1.63

Task item: Form: Entry = "O=C(O)c1cc(F)c2nc(N3[C@@H]4CC[C@H]3C[C@@H](OCc3c(-c5ccccc5OC(F)(F)F)noc3C3CC3)C4)sc2c1" | System = Bromodomain-containing protein 4 (Homo sapiens) (UniProt O60885) | ΔTm = ____
Reply: -7.4

Task item: Form: Entry = "CC[C@@H](Nc1c(C#N)c(-c2ccc(-c3cccc(C)c3F)cc2)nc2cnccc12)C(=O)O" | System = Bromodomain-containing protein 4 (Homo sapiens) (UniProt O60885) | ΔTm = ____
Reply: -1.25

---

TARGET DESC: Transcription intermediary factor 1-alpha (Homo sapiens) (UniProt O15164)
Sequence (O15164 whole entry): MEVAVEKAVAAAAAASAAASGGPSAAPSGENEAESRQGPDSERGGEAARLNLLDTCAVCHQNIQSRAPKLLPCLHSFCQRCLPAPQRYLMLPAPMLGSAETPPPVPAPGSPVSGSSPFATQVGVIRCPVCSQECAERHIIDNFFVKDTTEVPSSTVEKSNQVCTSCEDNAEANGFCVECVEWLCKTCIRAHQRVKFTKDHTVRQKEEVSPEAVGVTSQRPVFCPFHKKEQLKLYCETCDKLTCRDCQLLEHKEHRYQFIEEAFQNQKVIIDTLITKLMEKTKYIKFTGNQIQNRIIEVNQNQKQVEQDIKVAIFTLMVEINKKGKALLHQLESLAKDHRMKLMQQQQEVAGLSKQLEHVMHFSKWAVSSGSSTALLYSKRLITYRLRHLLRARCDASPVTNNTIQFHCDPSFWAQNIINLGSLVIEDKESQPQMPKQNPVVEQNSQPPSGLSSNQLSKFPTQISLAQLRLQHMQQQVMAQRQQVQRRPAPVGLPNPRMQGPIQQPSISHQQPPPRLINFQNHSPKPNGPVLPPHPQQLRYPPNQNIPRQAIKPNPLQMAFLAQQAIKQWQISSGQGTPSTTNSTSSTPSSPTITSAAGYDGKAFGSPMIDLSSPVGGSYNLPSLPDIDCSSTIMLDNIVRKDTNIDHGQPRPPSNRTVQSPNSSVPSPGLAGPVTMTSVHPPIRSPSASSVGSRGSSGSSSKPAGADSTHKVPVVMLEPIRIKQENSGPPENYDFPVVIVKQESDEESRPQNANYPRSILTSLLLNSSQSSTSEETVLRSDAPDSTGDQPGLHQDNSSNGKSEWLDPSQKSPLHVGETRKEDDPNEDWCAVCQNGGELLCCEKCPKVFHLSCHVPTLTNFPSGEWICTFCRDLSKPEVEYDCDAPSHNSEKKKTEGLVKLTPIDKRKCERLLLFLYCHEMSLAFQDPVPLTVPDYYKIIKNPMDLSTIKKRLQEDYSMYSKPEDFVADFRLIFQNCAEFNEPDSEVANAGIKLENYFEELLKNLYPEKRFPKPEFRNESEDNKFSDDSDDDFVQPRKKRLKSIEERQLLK
ASSAY CONDITIONS: Compound concentration 20.0 uM, Protein concentration 2.0 uM, Result type QC Liability
Record YES whenever ΔTm is at -1 °C or higher; record NO when lower.

Known results for molecules:
QUERY SMILES	DISCRETE LABEL
Fc1ccc(Cl)cc1-c1nc(Nc2ccncc2)c2nccnc2n1	NO
Cc1cc(C)nc(Nc2ncc(C(=O)NCCc3c(C)[nH]c4ccccc34)cn2)c1	NO
CS(=O)(=O)c1cc(C2(NC(=O)c3cncc4c3cnn4-c3ccc(F)cc3)CC2)ccn1	YES
COc1cc(-c2cn(C)c(=O)c3cnccc23)c(OC)cc1CN(C)C	YES

Turning now to a further molecule:
Task item: Is ΔTm for "CCS(=O)(=O)c1ccc(OC)c(Nc2ncc(-c3cccc(F)c3)o2)c1" at or above -1 °C?
Reply: NO

---

ΔTm by entry:
TARGET DESC: Transcription intermediary factor 1-alpha (Homo sapiens) (UniProt O15164)
ASSAY CONDITIONS: Compound concentration 20.0 uM, Protein concentration 2.0 uM, Result type QC Liability
Write the answer as a number in °C, unit excluded.

Some compounds with recorded ΔTm:
QUERY SMILES	MEASUREMENT KIND	READING UNIT	OBS VALUE
Oc1c(CN2CCCC2)cc(COCc2ccccc2)c2cccnc12	ΔTm	°C	-4.08
COc1cc2nc(-c3cc(F)ccc3O)nc(N[C@@H]3CNC[C@H]3C(C)(C)O)c2cc1OC	ΔTm	°C	-1.27
CN[C@@H](C)C(=O)N[C@H](C(=O)N1CCC[C@H]1C(=O)N[C@@H]1CCCc2ccccc21)C1CCCCC1	ΔTm	°C	-1.41
Cc1nc2cccnc2n2c(-c3cc(C(C)(C)O)ncc3Cl)nnc12	ΔTm	°C	-2.03

Let's switch to this compound now.
Task item: Form field: reported ΔTm of "N[C@@H]1CCCN(c2c(/C=C3\SC(=O)NC3=O)cccc2-c2ccccc2)C1"
Reply: -2.28

---

TARGET DESC: Transcription intermediary factor 1-alpha (Homo sapiens)
ASSAY CONDITIONS: Compound concentration 20.0 uM, Protein concentration 2.0 uM, Result type QC Liability
MEASUREMENT KIND: ΔTm (°C)
Write the answer as a number in °C, unit excluded.

Some compounds with recorded ΔTm:
COMPOUND	MEASUREMENT KIND	OBS VALUE
COc1cc(C(=O)O)ncc1C#Cc1ccccc1NS(=O)(=O)c1cccc2c(N(C)C)ccnc12	ΔTm	-2.33
CCCCC[C@@](C)(O)/C=C/[C@H]1C(=O)CC(O)C1C/C=C\CCCC(=O)O (some centres undefined)	ΔTm	-0.59
COc1cc(C)c(S(=O)(=O)N(C)CCC(=O)N[C@H]2CC[C@@H](N3CCC4CN(C)CC4C3)CC2)c(C)c1 (some centres undefined)	ΔTm	-0.4
O[C@]1(C(F)(F)F)CCCC[C@H]1Nc1ccc(F)cc1	ΔTm	-2.51
CCn1c(CNC(=O)c2nc(Cl)cnc2N)[n+](CC)c2ccc(C(=O)N(C)CCN(C)C)cc21	ΔTm	0.2
O=C(Nc1snnc1C(=O)Nc1ccc(N2CCCC2)cc1)c1cncc(C(F)(F)F)c1	ΔTm	-1.14

Task item: Form field: reported ΔTm of "C/C(=C\C(=O)Nc1ccccc1C(=O)O)c1ccc2ccccc2c1"
Reply: 0.61

Task item: Form field: reported ΔTm of "NCCCc1c(C(=O)O)[nH]c2ccc(C(=O)Nc3ccccc3)cc12"
Reply: -4.02

Task item: Form field: reported ΔTm of "CC1=C(C(=O)OCCO)[C@@H](c2ccc(C#N)cc2)NC(=O)N1c1cccc(C(F)(F)F)c1"
Reply: 0.4

---

ΔTm by entry:
TARGET DESC: Bromodomain-containing protein 4 (Homo sapiens)
ASSAY CONDITIONS: Compound concentration 20.0 uM, Protein concentration 2.0 uM, Result type QC Liability
Write the answer as a number in °C, unit excluded.

Some molecules with recorded ΔTm:
MOLECULE	MEASUREMENT KIND	OBS VALUE
Cc1nc(-c2ccc(C(F)(F)F)cc2)sc1C(=O)NCc1ccc(OC(C)(C)C(=O)O)cc1	ΔTm	-2.8
COc1cccc(Cn2cc(C(=O)Nc3ccc(C)c(S(=O)(=O)N4CCOCC4)c3)c(-c3ccc(C)cc3)n2)c1	ΔTm	1.27
CC1(C)CCC(CN2CCN(c3ccc(C(=O)NS(=O)(=O)c4ccc(NCC5CCOCC5)c([N+](=O)[O-])c4)c(Oc4cnc5[nH]ccc5c4)c3)CC2)=C(c2ccc(Cl)cc2)C1	ΔTm	-1.82
COc1cccc(-c2c(C)c(Cc3c(F)cccc3C(F)(F)F)c3n(c2=O)[C@@H]([C@@H](N)c2ccccc2)CS3)c1F	ΔTm	-3.06
CCCc1c(OCCCOc2ccc(OCC(=O)O)cc2)ccc(C(C)=O)c1O	ΔTm	-2.92

Task item: Form field: reported ΔTm of COc1cc(O)c(C(CC(=O)N2C[C@H](C)C[C@H](C)C2)c2ccc3c(c2)OCO3)c(OC)c1 (stereo partly drawn)
Reply: 0.54

Task item: Form field: reported ΔTm of "CC[C@H](Nc1c(C#N)c(-c2ccc(-c3cccc(C)c3F)cc2)nc2cnccc12)C(=O)O"
Reply: -2.07

Task item: Form field: reported ΔTm of "Cc1cc2c(cc(C(=O)N[C@H](CO)c3ccc(S(=O)(=O)CC(=O)O)cc3)n2C)c(Cl)c1Cl"
Reply: 2.14

---

ΔTm by entry:
TARGET DESC: Bromodomain-containing protein 4 (Homo sapiens) (UniProt O60885)
ASSAY CONDITIONS: Compound concentration 20.0 uM, Protein concentration 2.0 uM, Result type QC Liability
# do not omit the unit; it follows the number

Some molecules with recorded ΔTm:
QUERY SMILES	MEASUREMENT KIND	OBS VALUE
CN1CC(=O)N(C)c2cnc(Nc3ccc(NC(=O)Nc4cccc(C(=O)O)c4)cc3)nc21	ΔTm	0.02 °C
N=C(N)Nc1cc(C2CCNCC2)cc(C(F)(F)F)c1	ΔTm	-0.1 °C

Task item: Form field: reported ΔTm of "CCCCc1oc2ccccc2c1C(=O)c1cc(I)c(OCCN(CC)CC)c(I)c1"
Reply: -4.02 °C

Task item: Form field: reported ΔTm of "COc1cc2ncnc(N[C@H](C)c3ccccc3)c2cc1OC1CCN(S(C)(=O)=O)CC1"
Reply: -3.35 °C

Task item: Form field: reported ΔTm of "COc1cc2nc(-c3cc(F)ccc3O)nc(N[C@@H]3CNC[C@H]3C(C)(C)O)c2cc1OC"
Reply: 1.15 °C
